experiment: Inhibition of chymotrypsin-like activity of mouse liver 20S proteasome

[
  {
    "smiles.data": "CC(C)C[C@@H](NC(=O)[C@H](Cc1ccccc1)NC(=O)[C@H](Cc1ccccc1)NC(=O)c1cnccn1)B(O)O",
    "IC50 [nM]": 0.546
  },
  {
    "smiles.data": "CC(C)C[C@@H](NC(=O)[C@H](Cc1ccc2ccccc2c1)NC(=O)[C@H](Cc1ccc2ccccc2c1)NC(=O)c1cnccn1)B(O)O",
    "IC50 [nM]": 0.335
  },
  {
    "smiles.data": "CC(C)C[C@@H](NC(=O)[C@H](Cc1ccccc1)NC(=O)[C@H](Cc1ccc2ccccc2c1)NC(=O)c1cnccn1)B1O[C@@H]2[C@@H](C[C@H]3C[C@@H]2C3(C)C)O1",
    "IC50 [nM]": 0.22
  }
]

* * *

system: BXPC-3; assay: Cytotoxicity against human BxPC3 cells after 72 hrs by MTT assay; format: functional, cell-based; settings: BXPC-3, 72 h
measured.parameter: log10 IC50 (log10 of the value in nM)

[
  {
    "smiles.data": "CC(C)C[C@@H](NC(=O)[C@H](Cc1ccccc1)NC(=O)[C@H](Cc1ccc(O)cc1)NC(=O)c1cnccn1)B(O)O",
    "observed": 2.41
  },
  {
    "smiles.data": "CC(C)C[C@H](NC(=O)[C@H](Cc1ccc2ccccc2c1)NC(=O)c1cnccn1)C(=O)N[C@H](CC(C)C)B(O)O",
    "observed": 1.64
  },
  {
    "smiles.data": "CC(C)C[C@@H](NC(=O)[C@H](Cc1ccc2ccccc2c1)NC(=O)[C@H](Cc1ccc2ccccc2c1)NC(=O)c1cnccn1)B(O)O",
    "observed": 1.52
  },
  {
    "smiles.data": "CC(C)C[C@H](NC(=O)c1cnccn1)C(=O)N[C@@H](Cc1ccc2ccccc2c1)C(=O)N[C@H](CC(C)C)B(O)O",
    "observed": 1.33
  },
  {
    "smiles.data": "CC(C)C[C@@H](NC(=O)[C@H](Cc1ccc(O)cc1)NC(=O)[C@H](Cc1ccccc1)NC(=O)c1cnccn1)B(O)O",
    "observed": 2.65
  },
  {
    "smiles.data": "CC(C)C[C@@H](NC(=O)[C@H](Cc1ccccc1)NC(=O)[C@H](Cc1ccc2ccccc2c1)NC(=O)c1cnccn1)B(O)O",
    "observed": 1.50
  },
  {
    "smiles.data": "CC(C)C[C@@H](NC(=O)[C@H](Cc1ccc2ccccc2c1)NC(=O)[C@H](Cc1ccccc1)NC(=O)c1cnccn1)B(O)O",
    "observed": 1.46
  }
]

* * *

Recorded pIC50 by entry
assay: Inhibition of chymotrypsin-like activity of mouse liver 20S proteasome
pIC50: −log10 of the molar value.

[
  {
    "compound": "CC(C)C[C@@H](NC(=O)[C@H](Cc1ccc2ccccc2c1)NC(=O)[C@H](Cc1ccccc1)NC(=O)c1cnccn1)B(O)O",
    "bound.sign": "=",
    "pIC50": 9.95
  },
  {
    "compound": "CC(C)C[C@H](NC(=O)c1cnccn1)C(=O)N[C@@H](Cc1ccc2ccccc2c1)C(=O)N[C@H](CC(C)C)B(O)O",
    "bound.sign": "=",
    "pIC50": 10.10
  },
  {
    "compound": "CC(C)C[C@@H](NC(=O)[C@H](Cc1ccc2ccccc2c1)NC(=O)[C@H](Cc1ccc2ccccc2c1)NC(=O)c1cnccn1)B1O[C@@H]2[C@@H](C[C@H]3C[C@@H]2C3(C)C)O1",
    "bound.sign": "=",
    "pIC50": 9.31
  },
  {
    "compound": "CC(C)C[C@H](NC(=O)c1cnccn1)C(=O)N[C@@H](CC(C)C)C(=O)N[C@H](CC(C)C)B1O[C@@H]2[C@@H](C[C@H]3C[C@@H]2C3(C)C)O1",
    "bound.sign": "<",
    "pIC50": 7.70
  },
  {
    "compound": "CC(C)C[C@H](NC(=O)c1cnccn1)C(=O)N[C@@H](Cc1ccccc1)C(=O)N[C@H](CC(C)C)B1O[C@@H]2[C@@H](C[C@H]3C[C@@H]2C3(C)C)O1",
    "bound.sign": "=",
    "pIC50": 9.37
  },
  {
    "compound": "CC(C)C[C@@H](NC(=O)[C@H](Cc1ccccc1)NC(=O)[C@H](Cc1ccccc1)NC(=O)c1cnccn1)B1O[C@@H]2[C@@H](C[C@H]3C[C@@H]2C3(C)C)O1",
    "bound.sign": "=",
    "pIC50": 9.40
  },
  {
    "compound": "CC(C)C[C@H](NC(=O)c1cnccn1)C(=O)N[C@@H](Cc1ccccc1)C(=O)N[C@H](CC(C)C)B(O)O",
    "bound.sign": "=",
    "pIC50": 9.72
  },
  {
    "compound": "CC(C)C[C@H](NC(=O)[C@H](Cc1ccc2ccccc2c1)NC(=O)c1cnccn1)C(=O)N[C@H](CC(C)C)B1O[C@@H]2[C@@H](C[C@H]3C[C@@H]2C3(C)C)O1",
    "bound.sign": "=",
    "pIC50": 9.46
  },
  {
    "compound": "CC(C)C[C@@H](NC(=O)[C@H](Cc1ccc2ccccc2c1)NC(=O)[C@H](Cc1ccccc1)NC(=O)c1cnccn1)B1O[C@@H]2[C@@H](C[C@H]3C[C@@H]2C3(C)C)O1",
    "bound.sign": "=",
    "pIC50": 9.35
  },
  {
    "compound": "CC(C)C[C@H](NC(=O)[C@H](Cc1ccc2ccccc2c1)NC(=O)c1cnccn1)C(=O)N[C@H](CC(C)C)B(O)O",
    "bound.sign": "=",
    "pIC50": 9.66
  },
  {
    "compound": "CC(C)C[C@H](NC(=O)[C@H](Cc1ccccc1)NC(=O)c1cnccn1)C(=O)N[C@H](CC(C)C)B1O[C@@H]2[C@@H](C[C@H]3C[C@@H]2C3(C)C)O1",
    "bound.sign": "=",
    "pIC50": 9.54
  },
  {
    "compound": "CC(C)C[C@@H](NC(=O)[C@H](Cc1ccccc1)NC(=O)[C@H](Cc1ccc(O)cc1)NC(=O)c1cnccn1)B(O)O",
    "bound.sign": "=",
    "pIC50": 9.58
  },
  {
    "compound": "CC(C)C[C@@H](NC(=O)[C@H](Cc1ccccc1)NC(=O)[C@H](Cc1ccc(O)cc1)NC(=O)c1cnccn1)B1O[C@@H]2[C@@H](C[C@H]3C[C@@H]2C3(C)C)O1",
    "bound.sign": "=",
    "pIC50": 9.53
  },
  {
    "compound": "CC(C)C[C@@H](NC(=O)[C@H](Cc1ccc(O)cc1)NC(=O)[C@H](Cc1ccccc1)NC(=O)c1cnccn1)B(O)O",
    "bound.sign": "=",
    "pIC50": 9.40
  },
  {
    "compound": "CC(C)C[C@@H](NC(=O)[C@H](Cc1c[nH]c2ccccc12)NC(=O)[C@H](Cc1ccccc1)NC(=O)c1cnccn1)B1O[C@@H]2[C@@H](C[C@H]3C[C@@H]2C3(C)C)O1",
    "bound.sign": "<",
    "pIC50": 7.70
  },
  {
    "compound": "CC(C)C[C@H](NC(=O)c1cnccn1)C(=O)N[C@@H](Cc1ccc2ccccc2c1)C(=O)N[C@H](CC(C)C)B1O[C@@H]2[C@@H](C[C@H]3C[C@@H]2C3(C)C)O1",
    "bound.sign": "=",
    "pIC50": 9.43
  },
  {
    "compound": "CC(C)C[C@@H](NC(=O)[C@H](Cc1ccccc1)NC(=O)[C@H](Cc1ccc2ccccc2c1)NC(=O)c1cnccn1)B(O)O",
    "bound.sign": "=",
    "pIC50": 9.38
  },
  {
    "compound": "CC(C)C[C@@H](NC(=O)C(Cc1ccc(O)cc1)NC(=O)[C@H](Cc1ccccc1)NC(=O)c1cnccn1)B1O[C@@H]2[C@@H](C[C@H]3C[C@@H]2C3(C)C)O1 (some centres undefined)",
    "bound.sign": "=",
    "pIC50": 9.47
  },
  {
    "compound": "CC(C)C[C@@H](NC(=O)[C@H](Cc1ccccc1)NC(=O)[C@H](Cc1c[nH]c2ccccc12)NC(=O)c1cnccn1)B(O)O",
    "bound.sign": "<",
    "pIC50": 7.70
  },
  {
    "compound": "CC(C)C[C@@H](NC(=O)[C@H](Cc1ccccc1)NC(=O)[C@H](Cc1c[nH]c2ccccc12)NC(=O)c1cnccn1)B1O[C@@H]2[C@@H](C[C@H]3C[C@@H]2C3(C)C)O1",
    "bound.sign": "<",
    "pIC50": 7.70
  },
  {
    "compound": "CC(C)C[C@H](NC(=O)[C@H](Cc1ccccc1)NC(=O)c1cnccn1)B(O)O",
    "bound.sign": "=",
    "pIC50": 9.79
  },
  {
    "compound": "CC(C)C[C@@H](NC(=O)[C@H](Cc1c[nH]c2ccccc12)NC(=O)[C@H](Cc1ccccc1)NC(=O)c1cnccn1)B(O)O",
    "bound.sign": "<",
    "pIC50": 7.70
  },
  {
    "compound": "CC(C)C[C@H](NC(=O)c1cnccn1)C(=O)N[C@@H](CC(C)C)C(=O)N[C@H](CC(C)C)B(O)O",
    "bound.sign": "<",
    "pIC50": 7.70
  },
  {
    "compound": "CC(C)C[C@H](NC(=O)[C@H](Cc1ccccc1)NC(=O)c1cnccn1)C(=O)N[C@H](CC(C)C)B(O)O",
    "bound.sign": "=",
    "pIC50": 9.76
  }
]
